System: Spontaneously hypertensive male rats
Assay: Antihypertensive activity in spontaneously hypertensive rats (oral, 10 successive days)
Assay type: in vivo, rat
Conditions: 10 mg/kg/day p.o., day 8, 5 hours after administration
Protocol: Spontaneously hypertensive male rats [SHR, Jap. Circ. J. 27, 282-93 (1963)] being 18-23 weeks of age and having systolic blood pressure levels of 170-190 mmHg were used. […] The blood pressure of conscious SHR was measured prior to dosing and 5 hours after administration. It was also measured once daily over a period of 7 days after the end of the treatment period. […]
Field: Blood pressure. Provide a value for each of the compounds that follow.
Give bare numbers, in mm Hg.

Would you mind listing Blood pressure for each of the following compounds?
1. CC1=Nc2ccc(Cl)cc2S(=O)(=O)N1
2. NS(=O)(=O)c1cc2c(cc1Cl)NCNS2(=O)=O [Compound 4, Hydrochlorothiazide]
3. CN1CCN(C2=Nc3ccccc3S(=O)(=O)N2)CC1
4. O=S1(=O)NC(N2CCCCC2)=Nc2ccccc21
5. COc1cc2c(cc1OC)S(=O)(=O)NC(N1CCN(C)CC1)=N2
6. CN1CCN(C2=Nc3ccc(Cl)cc3S(=O)(=O)N2)CC1

1: 137; 2: 140; 3: 136; 4: 183; 5: 187; 6: 135

----------
Please respond with reported Blood glucose for every item in the list.
Test system: Male Wistar rats
Experiment: Effect on blood glucose (a), oral
Conditions: 300 mg/kg p.o., 1 hr
Give bare numbers, in mg/dL.

Here are 4 molecules. What values of Blood glucose were reported for them?
1. CC1=Nc2ccc(Cl)cc2S(=O)(=O)N1 [Compound 3]
2. CN1CCN(C2=Nc3ccc(Cl)cc3S(=O)(=O)N2)CC1 [Compound A]
3. CN1CCN(C2=Nc3ccccc3S(=O)(=O)N2)CC1 [Compound B]
4. NS(=O)(=O)c1cc2c(cc1Cl)NCNS2(=O)=O [Compound 4, Hydrochlorothiazide]

1: 126; 2: 105; 3: 107; 4: 114

----------
Test system: Male Wistar rats
Assay: Effect on blood glucose (a), oral
Settings: 300 mg/kg p.o., 3 hr
Could you please report measured Blood glucose for the items listed next?
One number for each entry, in mg/dL.

Count: 4. Required value per item: Blood glucose.
1. NS(=O)(=O)c1cc2c(cc1Cl)NCNS2(=O)=O [Compound 4, Hydrochlorothiazide]
2. CC1=Nc2ccc(Cl)cc2S(=O)(=O)N1
3. CN1CCN(C2=Nc3ccc(Cl)cc3S(=O)(=O)N2)CC1
4. CN1CCN(C2=Nc3ccccc3S(=O)(=O)N2)CC1

[111, 125, 107, 109]

----------
Assay: Toxicity (LD50), JCL-SD rats
Conditions: rat, in vivo, iv, female, dissolved with stoichiometric NaOH, 95% confidence limits in parentheses
READOUT KIND: LD50 at 168 h (mg/kg)
Answers are plain numbers, in mg/kg.

Please list LD50 at 168 h recorded for the molecule CN1CCN(C2=Nc3ccc(Cl)cc3S(=O)(=O)N2)CC1
740

----------
Assay: Toxicity (LD50), JCL-ICR mice
Details: mouse, in vivo, sc, male, dissolved with stoichiometric NaOH
READOUT KIND: LD50 at 168 h

State its LD50 at 168 h for this molecule: CN1CCN(C2=Nc3ccc(Cl)cc3S(=O)(=O)N2)CC1 [Compound A]
> 2410 mg/kg

----------
Test: Toxicity (LD50), JCL-SD rats
Conditions: rat, in vivo, sc, female, dissolved with stoichiometric NaOH
READOUT KIND: LD50 at 168 h

Identify the reported LD50 at 168 h for the following entry. CN1CCN(C2=Nc3ccc(Cl)cc3S(=O)(=O)N2)CC1 [Compound A]
> 1000 mg/kg

----------
System: Male Wistar rats
Assay: Effect on blood glucose (a), oral
Details: 300 mg/kg p.o., 10 hr
READOUT KIND: Blood glucose (mg/dL)
Give bare numbers, in mg/dL.

Report Blood glucose for every entry below.
1. CC1=Nc2ccc(Cl)cc2S(=O)(=O)N1
2. CN1CCN(C2=Nc3ccccc3S(=O)(=O)N2)CC1
3. NS(=O)(=O)c1cc2c(cc1Cl)NCNS2(=O)=O [Compound 4, Hydrochlorothiazide]

1. 148
2. 110
3. 113

Give the reported value of Blood glucose for this record: CN1CCN(C2=Nc3ccc(Cl)cc3S(=O)(=O)N2)CC1
110

----------
Assay: Toxicity (LD50), JCL-SD rats
Conditions: rat, in vivo, sc, male, dissolved with stoichiometric NaOH
Excerpt: Male and female JCL-ICR strain mice, weighing 20-30 g (each group: 8 mice), and male and female JCL-SD strain rats, weighing 150-250 g (each group: 8 rats) were used.
READOUT KIND: LD50 at 168 h

Query LD50 at 168 h for CN1CCN(C2=Nc3ccc(Cl)cc3S(=O)(=O)N2)CC1
> 1000 mg/kg

----------
Task for the reader: assign each of the following molecules its reported Blood glucose.
Test system: Male Wistar rats
Assay: Effect on blood glucose (b), intraperitoneal
Settings: 300 mg/kg i.p., 3 hr
One number for each entry, in mg/dL.

Here are 2 molecules together with their reported answers.
Look up and report measured Blood glucose for this entry: NS(=O)(=O)c1cc2c(cc1Cl)NCNS2(=O)=O [Compound 4, Hydrochlorothiazide]
220

Assign Blood glucose to the following record: CN1CCN(C2=Nc3ccccc3S(=O)(=O)N2)CC1
115

I need Blood glucose for every entry listed below, if you could help.
1. CC1=Nc2ccc(Cl)cc2S(=O)(=O)N1
2. CN1CCN(C2=Nc3ccc(Cl)cc3S(=O)(=O)N2)CC1

[599, 103]

----------
Tested on: Male Wistar rats
Assay: Effect on blood glucose (b), intraperitoneal
Conditions: 300 mg/kg i.p., 0 hr (prior to dosing)
Exercise: state measured Blood glucose for each of the compounds provided.
Answers are plain numbers, in mg/dL.

Give the reported value of Blood glucose for this record: CC1=Nc2ccc(Cl)cc2S(=O)(=O)N1
100

Please report Blood glucose for the following compound: NS(=O)(=O)c1cc2c(cc1Cl)NCNS2(=O)=O [Compound 4, Hydrochlorothiazide]
100

Identify measured Blood glucose corresponding to CN1CCN(C2=Nc3ccccc3S(=O)(=O)N2)CC1
100

Here is another compound to look at.
Fill in Blood glucose for record CN1CCN(C2=Nc3ccc(Cl)cc3S(=O)(=O)N2)CC1
94

----------
Assay: Toxicity (LD50), JCL-SD rats
Settings: rat, in vivo, iv, male, dissolved with stoichiometric NaOH, 95% confidence limits in parentheses
READOUT KIND: LD50 at 168 h (mg/kg)
Answers are plain numbers, in mg/kg.

Annotate the compound CN1CCN(C2=Nc3ccc(Cl)cc3S(=O)(=O)N2)CC1 with its measured LD50 at 168 h.
551

----------
Assay: Toxicity (LD50), JCL-ICR mice
Conditions: mouse, in vivo, sc, female, dissolved with stoichiometric NaOH
From the text: Male and female JCL-ICR strain mice, weighing 20-30 g (each group: 8 mice), and male and female JCL-SD strain rats, weighing 150-250 g (each group: 8 rats) were used.
READOUT KIND: LD50 at 168 h

Given the compound CN1CCN(C2=Nc3ccc(Cl)cc3S(=O)(=O)N2)CC1 , write its reported LD50 at 168 h.
> 2410 mg/kg
